Test system: TRPM6
Details: Compound Concentration (nM):1000;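 further: KINOMEscan scanMAX binding as percent activity remaining versus control; lower means stronger binding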
result.type: Percent Control (%)
Give bare numbers, in %.

Recorded Percent Control, per entry:
CCn1c(-c2nonc2N)nc2c(C#CC(C)(C)O)nc(OCCNC)cc21.Cl = 100
COc1ccc2cc(-c3c(-c4ccncc4)nc(-c4ccc(S(C)(=O)=O)cc4C)n3C)ccc2c1 = 71
CC1=C(C(=O)Nc2ccc3[nH]ncc3c2)C(c2ccc(Cl)c(Cl)c2)CC(=O)N1 (stereo not shown) [GSK299115A] = 87

As a next step, examine the compound that follows.
Using the record for Cl.O=S1CCN(Cc2ccc(-c3ccc4ncnc(Nc5ccc(OCc6ccccc6)c(F)c5)c4c3)o2)CC1 [GW576924A] , report its Percent Control.
92

---

Tested on: EPHA7
Settings: Compound Concentration (nM):1000
Please provide measured Percent Control for the entries that follow.
Numbers only, in %.

Recorded Percent Control, per entry:
CCS(=O)(=O)c1ccc(OC)c(Nc2ncc(-c3cccc(OC)c3)o2)c1 [GW580509X] = 100
COc1cc2ncn(-c3cc(O[C@H](C)c4ccccc4Cl)c(C(N)=O)s3)c2cc1OC [GSK237701A] = 88
NS(=O)(=O)c1ccc(Nc2ncc(-c3ccccc3)o2)cc1 [GW572399X] = 84

// input: 5 molecules below; output: Percent Control for each
1. COc1cc(C=NNc2ncnc3c2cnn3-c2ccccc2)ccc1O [GW513184X]
2. COc1ccc2cc(-c3c(-c4ccncc4)nc(-c4ccc(S(C)(=O)=O)cc4C)n3C)ccc2c1
3. COc1cc(C)c(N(C)C(=O)CN(C)C)cc1Nc1nc(Nc2cccc(F)c2C(N)=O)c2cc[nH]c2n1
4. Cl.c1ccc(Cc2nc3ccc(Nc4ncnc5ccccc45)cc3[nH]2)cc1 [GR269666A]
5. Cl.O=S1CCN(Cc2ccc(-c3ccc4ncnc(Nc5ccc(OCc6ccccc6)c(F)c5)c4c3)o2)CC1 [GW576924A]

[90, 48, 100, 100, 100]

---

Test system: ULK3
Details: Compound Concentration (nM):1000
Please provide measured Percent Control for the entries that follow.
One number for each entry, in %.

Recorded Percent Control, per entry:
COc1ccc2cc(-c3c(-c4ccncc4)nc(-c4ccc(S(C)(=O)=O)cc4C)n3C)ccc2c1 [SB-633825] = 73
Cl.O=C(O[C@H]1CN[C@H](C#Cc2cc3ncnc(Nc4ccc5c(cnn5Cc5ccccc5)c4)c3s2)C1)N1CCOCC1 [GSK200398A] = 91

// input: 5 molecules below; output: Percent Control for each
1. C/C(Nc1ccc(S(N)(=O)=O)cc1)=C1/C(=O)Nc2ccccc21 [GW335962X]
2. COc1ccccc1-c1cc(/C=C2\C(=O)Nc3ncc(Br)cc32)cc(Br)c1O [GW442130X]
3. COc1cc(N2CCN(C(C)C)CC2)ccc1Nc1nc(Nc2ccc(F)cc2C(=O)NC[C@@H](O)CO)c2cc[nH]c2n1 [GSK1392956A]
4. CN1CCN(C(=O)c2ccc(NC(=O)Nc3ccc(N(C)c4ccnc(Nc5ccc(CS(C)(=O)=O)cc5)n4)cc3)cc2)CC1.Cl [GW830263A]
5. CN(C)c1cc2c(Nc3ccc4c(cnn4Cc4ccccc4)c3)ncnc2cn1 [GW282974X]

83
78
100
7.6
91

---

System: RPS6KA4(Kin.Dom.1-N-terminal)
Details: Compound Concentration (nM):1000
result.type: Percent Control

COc1cc(C)c(N(C)C(=O)CN(C)C)cc1Nc1nc(Nc2cccc(F)c2C(N)=O)c2cc[nH]c2n1 = 92%
CN(C)c1cc2c(Nc3ccc4c(cnn4Cc4ccccc4)c3)ncnc2cn1 [GW282974X] = 93%
CCn1c(-c2nonc2N)nc2c(C#CC(C)(C)O)nc(OCCNC)cc21.Cl = 100%
Cl.O=C(Nc1ccc(Oc2ccc3[nH]c(NC(=O)c4ccco4)nc3c2)cc1)Nc1cc(C(F)(F)F)ccc1F [GW683134A] = 100%
Cl.c1ccc(Cc2nc3ccc(Nc4ncnc5ccccc45)cc3[nH]2)cc1 [GR269666A] = 100%

// input: 4 molecules below; output: Percent Control for each
1. NS(=O)(=O)c1ccc(N/N=C2\C(=O)Nc3ccc(-c4cnco4)cc32)cc1
2. CCc1ccc(Oc2nccc(-c3c(-c4ccc(F)cc4)ncn3C3CCNCC3)n2)cc1
3. O=C(Nc1n[nH]c2nc(-c3ccc(O)cc3)c(Br)cc12)C1CC1
4. COc1ccc(COc2ccc(Cc3cnc(N)nc3N)cc2OC)cc1 [GW632580X]

1: 65%; 2: 100%; 3: 100%; 4: 100%

// input: 4 molecules below; output: Percent Control for each
1. CC1=C(C(=O)Nc2ccc3[nH]ncc3c2)C(c2ccc3ccccc3c2)CC(=O)N1 (stereo not drawn) [GSK270822A]
2. COc1cc2ncn(-c3cc(O[C@H](C)c4ccccc4Cl)c(C(N)=O)s3)c2cc1OC [GSK237701A]
3. NS(=O)(=O)c1ccc(N/N=C2\C(=O)Nc3ccc(C(=O)NCc4ccncc4)cc32)cc1 [GW300657X]
4. Cc1cc(O)cc(C)c1/C=C/c1cncc(C(N)=O)c1 [GW435821X]

["100%", "92%", "87%", "100%"]

// input: 5 molecules below; output: Percent Control for each
1. COc1cc(C=NNc2ncnc3c2cnn3-c2ccccc2)ccc1O [GW513184X]
2. COc1cc(/C=N/Nc2ncnc3[nH]ncc23)ccc1O [GW578748X]
3. COc1cccc(-c2c[nH]c3c(N/N=C/c4ccncc4)ncnc23)c1 [GW814408X]
4. CN1CCN(C(=O)c2ccc(NC(=O)Nc3ccc(N(C)c4ccnc(Nc5ccc(CS(C)(=O)=O)cc5)n4)cc3)cc2)CC1.Cl [GW830263A]
5. COc1ccccc1-c1cc(/C=C2\C(=O)Nc3ncc(Br)cc32)cc(Br)c1O [GW442130X]

1. 100%
2. 100%
3. 100%
4. 82%
5. 100%

---

Please provide measured Percent Control for the entries that follow.
Test system: FGFR4
Details: Compound Concentration (nM):1000
Numbers only, in %.

Recorded Percent Control, per entry:
NS(=O)(=O)c1ccc(N/N=C2\C(=O)Nc3ccc(-c4cnco4)cc32)cc1 [GW276655] = 82
CC1=C(C(=O)Nc2ccc3[nH]ncc3c2)C(c2ccc(Cl)c(Cl)c2)CC(=O)N1 (centres unmarked) [GSK299115A] = 57
COc1cc2ncn(-c3cc(O[C@H](C)c4ccccc4Cl)c(C(N)=O)s3)c2cc1OC [GSK237701A] = 100
COc1cccc(-n2ncc3c(N/N=C/c4ccncc4)ncnc32)c1 [GW784752X] = 100
CN(C)c1cc2c(Nc3ccc4c(cnn4Cc4ccccc4)c3)ncnc2cn1 [GW282974X] = 84

// input: 5 molecules below; output: Percent Control for each
1. COc1cc(C=NNc2ncnc3c2cnn3-c2ccccc2)ccc1O [GW513184X]
2. COc1cc(N2CCN(C(C)C)CC2)ccc1Nc1nc(Nc2ccc(F)cc2C(=O)NC[C@@H](O)CO)c2cc[nH]c2n1 [GSK1392956A]
3. CCn1c(-c2nonc2N)nc2c(C#CC(C)(C)O)nc(OCCNC)cc21.Cl [GSK949675]
4. COc1ccc(COc2ccc(Cc3cnc(N)nc3N)cc2OC)cc1 [GW632580X]
5. Cl.c1ccc(Cc2nc3ccc(Nc4ncnc5ccccc45)cc3[nH]2)cc1 [GR269666A]

100
95
100
98
100

// input: 4 molecules below; output: Percent Control for each
1. Cc1cc(O)cc(C)c1/C=C/c1cncc(C(N)=O)c1 [GW435821X]
2. COc1cc(C)c(N(C)C(=O)CN(C)C)cc1Nc1nc(Nc2cccc(F)c2C(N)=O)c2cc[nH]c2n1 [GSK2219385]
3. CCS(=O)(=O)c1ccc(OC)c(Nc2ncc(-c3cccc(F)c3)o2)c1 [GW621970X]
4. COc1ccc2c(-c3ccnc(Nc4cccc(OC(F)(F)F)c4)n3)cnn2n1 [GW810372X]

[100, 96, 87, 100]

---

Tested on: TIE1
Details: Compound Concentration (nM):1000
Please provide measured Percent Control for the entries that follow.
One number for each entry, in %.

O=C1Nc2ccc(C(=O)c3ccco3)cc2C1=Cc1cc(Cl)c(O)c(Cl)c1 [GW406108X] = 100

// input: 7 molecules below; output: Percent Control for each
1. CC1=C(C(=O)Nc2ccc3[nH]ncc3c2)C(c2ccc(Cl)c(Cl)c2)CC(=O)N1 (centres unmarked) [GSK299115A]
2. CCS(=O)(=O)c1ccc(OC)c(Nc2ncc(-c3cccc(OC)c3)o2)c1 [GW580509X]
3. O=C(Nc1n[nH]c2nc(-c3ccc(O)cc3)c(Br)cc12)C1CC1
4. NS(=O)(=O)c1ccc(N/N=C2\C(=O)Nc3ccc(Cl)cc32)cc1 [GW280670X]
5. Cl.O=C(Nc1ccc(Oc2ccc3[nH]c(NC(=O)c4ccco4)nc3c2)cc1)Nc1cc(C(F)(F)F)ccc1F [GW683134A]
6. COc1ccccc1-c1cc(/C=C2\C(=O)Nc3ncc(Br)cc32)cc(Br)c1O [GW442130X]
7. CN(C)c1cc2c(Nc3ccc4c(cnn4Cc4ccccc4)c3)ncnc2cn1 [GW282974X]

1. 90
2. 49
3. 100
4. 100
5. 1.1
6. 100
7. 100

Taken from paper PMC7826789.
